Test system: PPARg DBDmut:RXRa IVT, anti-PPARg (DBD mutation: PPARg1 K132A/R137A, NR concentration 270 nM, RXRa partner concentration 90 nM)
Assay: PBM binding z-score (relative to random genomic background probes); higher = stronger binding; sequences stand for … in GC…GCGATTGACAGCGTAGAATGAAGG
Consider the following sequences and their measured PBM binding z-score readings.
// print number alone

-- ask Quick one: PBM binding z-score for ATCTCTAGGCAAAGATAGTTCAGTGAATGCAAAT ?
-- reply 0.389

-- ask Quick one: PBM binding z-score for GTACAAAGGTGAATAGGTCGTTGATGAGTAGGCG ?
-- reply 1.72

-- ask Quick one: PBM binding z-score for CCAACTGGGGCAAAGGTTACCATACTCAGTACGA ?
-- reply 0.471

-- ask Quick one: PBM binding z-score for ATCTCTAGGCAAGACTCAGTTCAGTGAAGAACGC ?
-- reply 0.0484

-- ask Quick one: PBM binding z-score for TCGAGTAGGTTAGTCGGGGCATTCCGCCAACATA ?
-- reply -0.206

-- ask Quick one: PBM binding z-score for CCTTACGGGTCAAGGTTAGAGCACGGGTGGTACG ?
-- reply 0.826

---

Consider the following sequences and their measured PBM binding z-score readings.
Tested on: FXR:RXRa (NR concentration 270 nM, RXRa partner concentration 90 nM)
Assay: PBM binding z-score (relative to random genomic background probes); higher = stronger binding; sequences stand for … in GC…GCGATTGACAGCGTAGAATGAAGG
// print number alone

Here's what some known entries look like.
- TCCCGGAGGACACGAAGGTCAGAGCTTTCCAGAG: 1.21
- GCTAACGGGTCAAAGGTTATAGCATGAATAGAAT: 7.39
- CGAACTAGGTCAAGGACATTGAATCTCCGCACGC: 3.45
- TGTCAAAGTTCAAACGTAACGTAAGTATCCACAC: 7.01
- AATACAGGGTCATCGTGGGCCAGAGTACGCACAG: 7.26
- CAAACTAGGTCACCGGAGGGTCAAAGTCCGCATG: 5.69
- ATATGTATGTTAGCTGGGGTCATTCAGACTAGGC: 3.96
- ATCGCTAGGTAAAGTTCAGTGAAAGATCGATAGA: 0.349
- TCTAGCAGGCCAGAGGGTCACTCATGAGGTACGG: 0.745
- ACAGACAGGTGATGAAGGTAAGTCAGGCTATCAT: -0.11

-- ask Quick one: PBM binding z-score for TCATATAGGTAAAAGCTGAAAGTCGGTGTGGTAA ?
-- reply 0.59

-- ask Quick one: PBM binding z-score for GGAACGAGGGCATTGGAGTTGATAGCATGGCGAT ?
-- reply 0.624

-- ask Quick one: PBM binding z-score for ACTTACGGGTCAACGAGGATATAGCACGCGTATA ?
-- reply 6.53

-- ask Quick one: PBM binding z-score for TCTAGTTGGCCACGGAGGTCACACACGACGGGTA ?
-- reply 2.71

-- ask Quick one: PBM binding z-score for CATCGGAGGACAACAGGAGGTCAGAGCTGCCAGA ?
-- reply 1.42

---

Test system: LXRb homodimer (NR concentration 270 nM)
Assay: PBM binding z-score (relative to random genomic background probes); higher = stronger binding; sequences stand for … in GC…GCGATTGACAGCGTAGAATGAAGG
Test readout: PBM binding z-score

Here's what some known entries look like.
• TCTCAGAGGACACGAAGGTCAGAGCTTTCCAGAG = -0.749
• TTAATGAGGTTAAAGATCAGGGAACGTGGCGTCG = 0.716
• CCTATTAGTTGACCATAAGGGCGACCGAAGCTCG = 0.545

-- ask Quick one: PBM binding z-score for TCTTGTAGATCAATAGAGGTTACGAAAGTGCGCT ?
-- reply 0.24

-- ask Quick one: PBM binding z-score for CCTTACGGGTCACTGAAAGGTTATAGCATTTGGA ?
-- reply 0.221

-- ask Quick one: PBM binding z-score for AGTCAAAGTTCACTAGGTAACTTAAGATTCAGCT ?
-- reply 1.21

-- ask Quick one: PBM binding z-score for GCTAGCAGGCCATTTGGGTCACTCCATGACGGGC ?
-- reply -0.772

-- ask Quick one: PBM binding z-score for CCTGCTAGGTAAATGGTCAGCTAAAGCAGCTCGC ?
-- reply -0.539

-- ask Quick one: PBM binding z-score for ACTAGCAGGCCAAGTTTGGGTCACTCAAACAAAG ?
-- reply -0.95

-- ask Quick one: PBM binding z-score for CTCCCAAGGTGAACAAGGTCGTTGATTACTATTC ?
-- reply -0.42

-- ask Quick one: PBM binding z-score for CAAACTAGGTCAAAGGTCACAGTCGAGCCAACCA ?
-- reply 2.03

-- ask Quick one: PBM binding z-score for CTCGAAAGGTCGGTTGAGGTGAGTTTACGGATAA ?
-- reply -0.184
